Test: NCI Yeast Anticancer Drug Screen. Data for the rad50 strain (AID 155);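 further: 0% = growth of vehicle-only cultures of the same strain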
Details: S. cerevisiae rad50 strain growth inhibition; at 50.0 µM; active compounds read high
The panel holds about 79,000 compounds, 15% with a hit somewhere; the sample as a whole holds those more often. Active and inactive are the calls of the source. No stated cut-off is given here; in the data, active means growth inhibition above about 70%; inactive means the rest.
# key: entry, value: growth inhibition

// below: answered compounds
* CCOC(=O)/C(=C\c1ccc(Br)cc1)C(C)=O | 92.5% (active)
* CC(C)(C)CC(C)(C)N[P+](NC(C)(C)CC(C)(C)C)(NC(C)(C)CC(C)(C)C)NC(C)(C)CC(C)(C)C | 83.2% (active)
* N#CC(C#N)=C1C(Br)=CCc2ccccc21 | 99.2% (active)

Name the recorded growth inhibition for COC(=O)CCC(C)C1CCC2C3CCC4CC(SC(=N)N)CCC4(C)C3CC(O)C12C (stereo not given) . 99.1% (active)

Ok, now O=C(c1ccc([N+](=O)[O-])cc1)C(Br)C(Br)c1ccnc2ccccc12 (stereo not given) 98.2% (active)

Ok, now "O=C(Nc1cc(Cl)ccc1Oc1cc(Cl)c(Cl)cc1S(=O)(=O)O)Nc1cc(Cl)ccc1Oc1cc(Cl)c(Cl)cc1S(=O)(=O)O" 85% (active)

Ok, now "Clc1ccc(Cl)c(SCCCN2CCNCC2)c1" 79.7% (active)

Ok, now "Cc1ccc2nn(-c3ccc(O)cc3)nc2c1" 50.3% (inactive)

Ok, now CCCCCCN(CCCCCC)CCCC(O)c1cccc2ccccc12 (stereo not given) 99.2% (active)

Ok, now "Cc1ccc(S(=O)(=O)C(=S)Sc2ccccc2)cc1" 45.5% (inactive)

This collection of values is drawn from PubChem BioAssay (NCI).
